- Tested on: Plasmodium berghei
- Method Description: Screen against P. berghei liver stage (PbLuc), transformed with Luciferase, at 2uM
- Assay type: functional, HepG2
- Experimental Conditions: tested at 2 uM
About 2,700 (4%) of roughly 68,000 compounds showed an effect of 50% or more. This excerpt belongs to a sample that is enriched for strong results.
Entries and their measured INHIBITION follow.

# Molecule, INHIBITION, %
data = [
    ("Cn1c(CO)cnc1SC1CCCN(c2ccccc2F)C1=O (stereo not drawn)", 15.82),
    ("COc1cccc(CC2(CO)CCCN(c3nccs3)C2)c1 (stereo not drawn)", 14.21),
    ("CNc1cc(C2CCCN2Cc2ccc(OCC(=O)O)cc2)ccn1 (stereo not drawn)", 29.06),
    ("COc1cccc(CC2(C(=O)O)CCN(c3ccc(Cl)cn3)CC2)c1", 7.67),
    ("Cc1cc(CN2CCc3nn(C)c(=O)cc3C2)on1", -2.31),
    ("COc1cccc(CC2(C(=O)O)CCN(c3nccs3)CC2)c1", 50.59),
    ("CCCn1nc2c(cc1=O)CN(Cc1c(C)noc1C)CC2", 44.37),
    ("Cc1cc(CC(=O)NC2CCCN(Cc3ccccc3)C2=O)n[nH]1 (stereo not drawn)", -8.63),
]

---

- Test system: Plasmodium berghei
- Method Description: Screen against P. berghei liver stage (PbLuc), transformed with Luciferase, at 2uM
- Assay type: functional, HepG2
- Experimental Conditions: tested at 2 uM
Screen size: about 68,000 compounds; about 2,700 (4%) showed an effect of 50% or more. This excerpt belongs to a sample that is enriched for strong results.
INHIBITION of 20% or higher: TRUE. Under 20%: FALSE.

# Molecule, Label Value
data = [
    ("O=C(NCCNc1ncccn1)C1CC(=O)N(Cc2ccccn2)C1 (stereo not drawn)", "TRUE"),
    ("CN1C(=O)c2cccc(NC(=O)c3ccc4c(c3)OCCO4)c2C1=O", "TRUE"),
    ("CC(c1nc(C(C)(C)C)no1)N1CCC(N2CCCC2)CC1 (stereo not drawn)", "FALSE"),
    ("O=C(NCCO)Nc1ccc(Cl)cc1-n1cccc1", "FALSE"),
    ("Cc1nccc(C2CCCCN2Cc2ccc(F)cc2)n1 (stereo not drawn)", "FALSE"),
    ("CC(c1nc(C2CC2)no1)N1CCN(Cc2nnc(C3CC3)o2)CC1 (stereo not drawn)", "TRUE"),
    ("CCS(=O)(=O)N1C[C@@H]2CN(Cc3cccs3)CCO[C@@H]2C1", "FALSE"),
    ("CCN1CCN(S(=O)(=O)N2CCc3ccccc3C2)[C@H]2CS(=O)(=O)C[C@H]21", "TRUE"),
    ("CC(c1nc(C2CC2)no1)N1CCN(Cc2ccsc2)CC1 (stereo not drawn)", "FALSE"),
    ("C1=CCN(c2nc(CC3CC3)nc3c2CCN(C2CCOCC2)CC3)C1", "FALSE"),
    ("Cc1nn2c(nc1=O)-c1ccccc1NC2C(=O)O (stereo not drawn)", "TRUE"),
    ("CCC(CN1CCCC1)NC(=O)C1(c2cccc(F)c2)CC1 (stereo not drawn)", "FALSE"),
    ("CCc1nc(CN2CCN(C(C)c3nc(C4CC4)no3)CC2)no1 (stereo not drawn)", "FALSE"),
    ("NC(=O)CN1CCCCC1c1nc(N)ncc1-c1cccc(F)c1 (stereo not drawn)", "FALSE"),
    ("Cn1ncc(C(=O)OCC2CC(=O)N(c3ccccc3)C2)c1C(F)F (stereo not drawn)", "TRUE"),
    ("c1ccc(C2CCCCN2Cc2nc(-c3cnccn3)no2)nc1 (stereo not drawn)", "FALSE"),
    ("CN(C)C(=O)CN1CCCCC1c1nc(N)ncc1-c1ccccc1 (stereo not drawn)", "FALSE"),
    ("Cc1cc(C)c(CNC(=O)NCc2nnc3n2CCCC3)c(=O)[nH]1", "FALSE"),
    ("Cn1cc(CN2CCc3ccc(=O)n(CC4CC4)c3CC2)cn1", "TRUE"),
    ("O=C1Nc2ccccc2CC12CCCN2Cc1ccc(C(F)(F)F)cc1 (stereo not drawn)", "FALSE"),
    ("O=C(c1ccco1)N1CCOCC2(CCN(C3CCOCC3)C2)C1 (stereo not drawn)", "FALSE"),
    ("Fc1ccc(Cc2cnc(C3CCCN3)cn2)cc1 (stereo not drawn)", "FALSE"),
    ("CCCc1noc(C(C)S(=O)(=O)Cc2nc(C3CC3)no2)n1 (stereo not drawn)", "FALSE"),
    ("CCc1ccc(S(=O)(=O)N2CCCC3(CCCN3S(C)(=O)=O)C2)cc1 (stereo not drawn)", "TRUE"),
    ("CCC1CN(CC(=O)NCCC#N)CCO1 (stereo not drawn)", "TRUE"),
    ("CN(C)C(=O)CN1CCCCC1c1nc(N)ncc1-c1cccc(F)c1 (stereo not drawn)", "TRUE"),
    ("COc1ccccc1S(=O)(=O)N1CCN(C)[C@@H]2CS(=O)(=O)C[C@@H]21", "TRUE"),
    ("O=C(COc1ccc2cccnc2c1)N1CCN[C@H]2CS(=O)(=O)C[C@H]21", "FALSE"),
    ("COc1ccc(CC(C)(O)CNC(=O)NCc2cccs2)cc1 (stereo not drawn)", "TRUE"),
    ("CC(C)c1noc(C(C)N2CCN(Cc3nnc(C4CC4)o3)CC2)n1 (stereo not drawn)", "TRUE"),
    ("CCN(C(=O)CNc1cc(C)c(F)cc1C(N)=O)C1CC1", "FALSE"),
    ("Cc1noc(C(C)N2CCN(Cc3nnc(C4CC4)o3)CC2)n1 (stereo not drawn)", "FALSE"),
    ("COCCOc1cccc(CNCc2ccc(-n3cncn3)nc2)c1", "FALSE"),
    ("CCCNC(=O)CN1CCOC(CC)C1 (stereo not drawn)", "TRUE"),
    ("CCN(Cc1ccncc1)CC1(O)CCN(C(=O)c2cnn(C)c2)C1 (stereo not drawn)", "TRUE"),
    ("Cc1nccc(C2CCCCN2Cc2cccc(F)c2)n1 (stereo not drawn)", "TRUE"),
    ("CCN(Cc1ccncc1)CC1(O)CCN(C(=O)c2ccccc2C)C1 (stereo not drawn)", "TRUE"),
]
